Target: MMP-2 (Homo sapiens)
Construct: made in house; host or cells: MMP-2-transfected p2AHT2 cells
Sequence (P08253 110-660): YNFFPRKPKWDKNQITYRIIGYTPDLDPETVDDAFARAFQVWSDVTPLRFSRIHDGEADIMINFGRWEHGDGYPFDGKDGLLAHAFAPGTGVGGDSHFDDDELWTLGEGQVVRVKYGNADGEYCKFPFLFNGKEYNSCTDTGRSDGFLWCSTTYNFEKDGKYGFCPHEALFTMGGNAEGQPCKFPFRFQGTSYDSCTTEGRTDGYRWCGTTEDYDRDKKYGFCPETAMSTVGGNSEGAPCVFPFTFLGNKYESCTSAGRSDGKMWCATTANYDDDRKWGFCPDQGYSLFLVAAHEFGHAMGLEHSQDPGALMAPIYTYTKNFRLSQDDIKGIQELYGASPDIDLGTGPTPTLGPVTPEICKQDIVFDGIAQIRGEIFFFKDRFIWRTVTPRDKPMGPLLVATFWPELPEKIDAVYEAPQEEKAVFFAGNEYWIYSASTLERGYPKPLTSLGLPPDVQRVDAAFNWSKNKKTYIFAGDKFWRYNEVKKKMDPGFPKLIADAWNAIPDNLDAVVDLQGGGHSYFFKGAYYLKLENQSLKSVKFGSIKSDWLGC
Assay: MMP-2 inhibition (in vitro Ki)
Assay type: biochemical
Conditions: Table 9; read-out: MMP-2 Ki (IC-50)
Answer each item with its documented pKi.
Expect pKi as a plain number equal to -log10 of the molar concentration.

Consider the compound shown here: O=C(NO)C1(S(=O)(=O)N2CCC(c3ccc(CCC(F)(F)C(F)(F)F)cn3)CC2)CCN(Cc2ccccc2)CC1 [Example A174] What is its recorded pKi?
8.88

Which pKi reading was recorded for the compound CC(C)(C(=O)NO)S(=O)(=O)N1CCC(c2ccc(CCC(F)(F)C(F)(F)F)cn2)CC1 [Example A122] ?
9.43

Requested field: pKi. Item: O=C(NO)C1(S(=O)(=O)N2CCC(c3ccc(-n4cccn4)cn3)CC2)CCOCC1 [Example A194]
8.06

Name the reported pKi value associated with the compound COC(=O)CCCC1CCN(S(=O)(=O)C2(C(=O)NO)CCOCC2)CC1 [Example A148]
8.18

Would you kindly share the measured pKi for O=C(NO)C1(S(=O)(=O)N2CCC(c3ccc(COCC(F)(F)F)cn3)CC2)CCOCC1 [Example A173] ?
8.12

----------
target: MMP-13 (Homo sapiens); construct: made in house; host or cells: baculovirus / insect cells; assay: MMP-13 inhibition (in vitro Ki); assay type: biochemical; settings: Table 8; read-out: MMP-13 Ki
pKi: −log10 of the molar value. Structures can show the parent of a compound that is named as a salt.
Lab note: anything with pKi at or over 9 counts as yes (1); the rest go in no (0).

pKi >= 9 for O=C(NO)C1(S(=O)(=O)N2CCC(COCCCC(F)(F)F)CC2)CCOCC1 [Example A42] ?
no (0)

Exam item: decide whether the reported pKi for O=C(NO)C1(S(=O)(=O)N2CCC(c3ccc(OCC(F)(F)C(F)(F)F)cn3)CC2)CCOCC1 [Example A58, Hydrochloride] is at least 9.
yes (1)

Is the recorded value of pKi equal to or greater than 9 for this molecule? O=C(NO)C1(S(=O)(=O)N2CCC(CCCCC(F)(F)C(F)(F)F)CC2)CCOCC1 [Example A53]
no (0)

Could you tell me if the measured pKi of O=C(NO)C1(S(=O)(=O)N2CCC(c3cnc(CCC(F)(F)C(F)(F)F)cn3)CC2)CCOCC1 [Example A65] reaches 9 or more?
yes (1)

Kindly determine if pKi recorded for CC(F)(F)CCc1ccc(C2CCN(S(=O)(=O)C3(C(=O)NO)CCOCC3)CC2)nc1 [Example A63, Hydrochloride] is above or exactly 9.
yes (1)

Dear colleague, could you confirm whether CCCCOCCC1CCN(S(=O)(=O)C2(C(=O)NO)CCOCC2)CC1 [Example A44] has pKi at or above 9?
no (0)

Answer whether pKi of O=C(NO)C1(S(=O)(=O)N2CCC(OCCCCCC(F)(F)F)CC2)CCOCC1 [Example A49] is greater than or equal to 9.
no (0)

Textbook exercise: given the entry CCCCCCOC1CCN(S(=O)(=O)C2(C(=O)NO)CCOCC2)CC1 [Example A36] , state whether its pKi is greater than or equal to 9.
no (0)

Reported pKi reaches at least 9 for CCC(CC)(C(=O)NO)S(=O)(=O)N1CCC(c2ccc(CCC(F)(F)C(F)(F)F)cn2)CC1 [Example A60, Hydrochloride] ?
yes (1)

Could you please find out whether O=C(NO)C1(S(=O)(=O)N2CCC(CCCCOCCC(F)(F)F)CC2)CCOCC1 [Example A46] has pKi that meets 9 or exceeds it?
yes (1)

Does pKi meet or surpass 9 for CC(C)(C)CCOC1CCN(S(=O)(=O)C2(C(=O)NO)CCOCC2)CC1 [Example A36E] ?
no (0)

Threshold query (pKi >= 9) on CCCCCCOCC1CCN(S(=O)(=O)C2(C(=O)NO)CCOCC2)CC1 [Example A41]
no (0)

Entry O=C(NO)C1(S(=O)(=O)N2CCC(CCCOCCCC(F)(F)F)CC2)CCOCC1 [Example A36J] : is its pKi no less than 9?
no (0)

hey, is pKi for this one >= 9? O=C(NO)C1(S(=O)(=O)N2CCC(CCCCc3nc(-c4ccc(OC(F)(F)F)cc4)no3)CC2)CCOCC1 [Example A64]
yes (1)

Dear colleague, could you confirm whether CCCCCOC1CCN(S(=O)(=O)C2(C(=O)NO)CCOCC2)CC1 [Example A36A] has pKi at or above 9?
no (0)

Entry CCCCCOCCC1CCN(S(=O)(=O)C2(C(=O)NO)CCOCC2)CC1 [Example A47] : is its pKi no less than 9?
no (0)

Decide: pKi of O=C(NO)C1(S(=O)(=O)N2CCC(CCCCCOCC(F)(F)F)CC2)CCOCC1 [Example A35] >= 9?
yes (1)

Confirm if pKi reported for the molecule CCOCCCCCC1CCN(S(=O)(=O)C2(C(=O)NO)CCOCC2)CC1 [Example A38] is 9 or above.
yes (1)
